Tested on: HT29 colon
Assay: NCI tumour cell line growth inhibition, 48 h
Could you please report measured TGI for the items listed next?

List TGI for every entry below, keeping the order given.
1. CCC(=O)O[C@H]1CC[C@H]2[C@@H]3CC[C@H]4CC(=O)[C@H](C)C[C@]4(C)[C@H]3CC[C@]12C
2. O=[N+]([O-])c1c(Br)cc(Br)c2c1Nc1c(ccc(Cl)c1Cl)S2
3. O=c1[nH]c(=O)n([C@@H]2C[C@H](CO)[C@H](O)C2)cc1/C=C/Br
4. CC(=O)O[C@@H]1C[C@@]23C[C@@]24CC[C@H](OC2OCC(O)C(O)C2O)C(C)(C)[C@@H]4CC=C3[C@]2(C)C[C@@H]3OC4(C[C@@H](C)[C@@H]3[C@@]12C)OC(O)[C@@]1(C)O[C@@H]41 (some centres undefined)
5. CSC(CC(=O)O)C(=O)O (centres undefined)
6. CC1(C)CC[C@H](Nc2ncc(C(F)(F)F)c(-c3c[nH]c4c(P(C)(C)=O)c(C#N)ccc34)n2)CN1
7. OC1c2ccccc2C2(O)C1C(c1ccccc1)C(c1ccccc1)C2(O)c1ccccc1 (centres undefined)

1. > 100 µM
2. 26 µM
3. > 100 µM
4. > 100 µM
5. > 100 µM
6. > 27.7 µM
7. 22.8 µM

List TGI for every entry below, keeping the order given.
1. CCOC(=O)C(=[N+]=[N-])C(=O)Nc1nn2nnnc2c2ccccc12
2. CO/C(=N\N=C\c1cccc(Cl)c1)c1ccncc1

1. > 100 µM
2. > 10 µM

---

System: CAKI-1 renal
Experiment: NCI tumour cell line growth inhibition, 48 h
observed_property: TGI

>  <molecule>
Cc1ccc(C2=NOC(=O)[C@@H]3CCCC[C@@H]23)cc1

>  <recorded_result>
> 100 µM

$$$$

List TGI for every entry below, keeping the order given.
1. O=[N+]([O-])c1ccc2nc(-c3ccccn3)c(-c3ccccn3)nc2c1
2. COc1ccc(/C=c2\[nH]c3nc(=O)c(N4CCOCC4)c(N)n3c2=O)cc1
3. COc1ccc(NC(=O)C(=O)Cc2nc3ccc([N+](=O)[O-])cc3[nH]c2=O)c(OC)c1
4. COc1cc(/C=C/C(=O)c2c(=O)o[nH][n+]2-c2ccccc2)ccc1[O-]
5. COC(=O)C1C(O)CC(c2ccccn2)N(Cc2ccccc2)C1c1ccccn1 (stereo not given)
6. O=C1C=C(NCCNC(=S)Nc2ccccc2)c2nccc3c2c1nc1ccccc13

["> 100 µM", "> 100 µM", "> 100 µM", "9.41 µM", "> 100 µM", "> 100 µM"]

---

Could you please report measured TGI for the items listed next?
Tested on: OVCAR-3 ovarian
Test: NCI tumour cell line growth inhibition, 48 h
One number for each entry, in µM.

Worked examples follow.
>  <molecule>
Cc1cc(/C=C\c2ccc3ccccc3[n+]2C)c(O)c2ncccc12

>  <TGI (µM)>
0.569

$$$$
>  <molecule>
CC(C)CNCC(O)COc1ccc(C(C)(C)c2ccc(OCC(O)CNCC(C)C)cc2)cc1 (centres undefined)

>  <TGI (µM)>
4.15

$$$$
>  <molecule>
OCC1OC(n2cnc3cncnc32)C(O)C1O (centres undefined)

>  <TGI (µM)>
4.94

$$$$
>  <molecule>
O=C(Nc1cccc([N+](=O)[O-])c1)C(=O)C(C(=O)c1ccccc1-c1ccccc1)C1OC(=O)c2ccccc21 (centres undefined)

>  <TGI (µM)>
36.4

$$$$

Recorded TGI for `CN1CCN(c2ccc(NC(=O)c3nc4ccc5[nH]ncc5c4c4c3CCCC4)cc2C(F)(F)F)CC1` , please? 1.81

---

Test system: MDA-MB-435
Assay: NCI tumour cell line growth inhibition, 48 h
observed_property: TGI (µM)
Give bare numbers, in µM.

Worked examples follow.
>  <compound>
COc1ccc(-c2oc3c(OC)c(OC)c(OC)c(O)c3c(=O)c2OC)cc1OC

>  <recorded_result>
32.9

$$$$
>  <compound>
Clc1ccc(N2N=C(c3cccc(Nc4ccncc4)c3)CC2c2ccc3c(c2)OCO3)cc1 (stereo not drawn)

>  <recorded_result>
3.02

$$$$

List TGI for every entry below, keeping the order given.
1. COc1cc2c(cc1OCCCC(=O)Nc1cc(C(=O)Nc3cc(C(=O)Nc4cc(C(=O)NCCCN(C)C)n(C)n4)n(C)n3)n(C)n1)N=CC1CCCN1C2=O (stereo not drawn)
2. O=[N+]([O-])c1ccc(S[C@@H]2[C@H]3c4c(-c5ccccc5)[nH]c(-c5ccccc5)c4[C@@H]2C[C@H]3Cl)cc1

1: 44.9; 2: 27.8

---

Test system: KM12 colon
Test: NCI tumour cell line growth inhibition, 48 h; in the data active = GI50 below about 0.43 µM; inactive = the rest
Mark one answer only. Choices: active, inactive

>  <molecule>
Cc1ccc(S(=O)(=O)NCCNC2=CC(=O)c3nc4ccccc4c4ccnc2c34)cc1

>  <group>
inactive

$$$$
>  <molecule>
COc1cc2c(c(OC)c1OC)-c1ccc(N)c(=O)cc1[C@@H](NC(C)=O)CC2

>  <group>
active

$$$$
>  <molecule>
CCN(CC)CCNc1ccc([N+](=O)[O-])c2sc3ccccc3c(=O)c12

>  <group>
inactive

$$$$
>  <molecule>
O=C(Nc1ccc(F)cc1)c1ccc(NC2=C(Cl)C(=O)N(Cc3ccccc3)C2=O)cc1

>  <group>
inactive

$$$$
>  <molecule>
O=C(/C=C/C12c3ccccc3C(c3ccccc31)C1C(=O)N(c3ccccc3)C(=O)C12)c1ccccc1 (stereo not drawn)

>  <group>
inactive

$$$$

Given `FC(F)(F)c1cc(-c2nnc3n2N=C(N2CCCC2)CS3)cc(C(F)(F)F)c1` , state the outcome it received in this test. inactive

Given `CN1CCN(c2ccc(NC(=O)c3nc4ccc5[nH]ncc5c4c4c3CCCC4)cc2C(F)(F)F)CC1` , state the outcome it received in this test. inactive

Given `CCCC(=O)Nc1cc(C(=O)N2C[C@@H]3C[C@]34C2=CC(=O)c2[nH]cc(C)c24)n(COC)c1` , state the outcome it received in this test. inactive

---

Could you please report measured TGI for the items listed next?
System: HL-60(TB) leukemia
Experiment: NCI tumour cell line growth inhibition, 48 h

Worked examples follow.
>  <compound>
CC12N=NN(c3ccc([N+](=O)[O-])cc3)C1(O)c1ccccc1C2=O (centres undefined)

>  <recorded_result>
> 100 µM

$$$$
>  <compound>
CC(=O)/C(=C/n1c(=S)[nH]c2ccccc21)C(=O)Nc1ccccc1C

>  <recorded_result>
> 100 µM

$$$$
>  <compound>
CC(=O)O[C@@H]1C[C@@]23C[C@@]24CC[C@H](OC2OCC(O)C(O)C2O)C(C)(C)[C@@H]4CC=C3[C@]2(C)C[C@@H]3OC4(C[C@@H](C)[C@@H]3[C@@]12C)OC(O)[C@@]1(C)O[C@@H]41 (some centres undefined)

>  <recorded_result>
36.4 µM

$$$$

List TGI for every entry below, keeping the order given.
1. CCCCCCCCCCCCCCN
2. COC1OC(Cc2nnc(C)o2)C(OCc2ccccc2)C(OCc2ccccc2)C1OCc1ccccc1 (centres undefined)
3. CCOP(=O)(OCC)C(Nc1cccc(F)c1)c1ccccc1 (centres undefined)
4. Oc1cc(O)c(Oc2cccc(O)c2O)c(O)c1
5. Cc1ccc(/C(=N\N=C(N)N)c2ccccc2)cc1
6. CCCCC1CC(c2cccc([N+](=O)[O-])c2)=NO1 (centres undefined)
7. CCN(CC)CCNc1ccc([N+](=O)[O-])c2sc3ccccc3c(=O)c12
8. CC(C)=CCC[C@@H](C)C1=C(Nc2ccccc2Cl)C(O)=C(C)C(=O)C1=O

> 100 µM
76.3 µM
55.3 µM
> 100 µM
> 36.2 µM
> 100 µM
3.27 µM
2.94 µM

---

Tested on: LOX IMVI melanoma
Assay: NCI tumour cell line growth inhibition, 48 h
observed_property: GI50

>  <compound_structure>
CCc1n(Cc2ccc3ccccc3n2)cc[n+]1Cc1ccc2ccccc2n1

>  <recorded_result>
0.596 µM

$$$$
>  <compound_structure>
Cc1ccc(/C(=N\N=C(N)N)c2ccccc2)cc1

>  <recorded_result>
0.611 µM

$$$$

List GI50 for every entry below, keeping the order given.
1. C1C[OH+]CC[OH+]CCNCC[OH+]CC[OH+]CCN1.[Cl-].[Pt+4]
2. C/C(=N\O)c1cccc(Nc2cc(-n3ccnn3)c3ccccc3n2)c1
3. COc1ccc2c(c1)/C(=C\c1cccnc1)C(=O)N2
4. Cc1ccc(S(=O)(=O)NCCNC2=CC(=O)c3nc4ccccc4c4ccnc2c34)cc1

1. > 100 µM
2. 15.4 µM
3. 8.83 µM
4. 16.6 µM

---

Could you please report measured TGI for the items listed next?
System: MDA-MB-435
Experiment: NCI tumour cell line growth inhibition, 48 h

Worked examples follow.
>  <compound>
C/C(=C\c1ccccn1)c1ccccn1

>  <recorded_result>
> 100 µM

$$$$
>  <compound>
O=C(/C(=C\C(=O)c1cccs1)c1ccsc1)c1ccc(Br)cc1

>  <recorded_result>
> 100 µM

$$$$
>  <compound>
Cn1nc2n(c1=O)CCCN2

>  <recorded_result>
> 100 µM

$$$$

List TGI for every entry below, keeping the order given.
1. Oc1ccc(C(c2ccc(O)cc2)c2ccc(Cl)cn2)cc1
2. O=C1C=C(NCCNC(=S)Nc2ccccc2)c2nccc3c2c1nc1ccccc13
3. Cc1c(S(C)(=O)=O)c(-c2cc(F)cc(N3CCN(c4ccc(NS(=O)(=O)c5ccc(N[C@H](CCN6CCC(C(=O)OCCCP(=O)(O)O)CC6)CSc6ccccc6)c(S(=O)(=O)C(F)(F)F)c5)cc4)CC3)c2)c(-c2ccc(Cl)cc2)n1C(C)C
4. COc1ccc(Nc2ncc(Br)c(NCCCNC(=O)C3CCC3)n2)cc1
5. O=C(/C=C/C12c3ccccc3C(c3ccccc31)C1C(=O)N(c3ccccc3)C(=O)C12)c1ccccc1 (centres undefined)

> 86.2 µM
47.7 µM
> 100 µM
> 100 µM
> 100 µM

Recorded TGI for `Cc1ccncc1.F[B-](F)(F)F.[Pt+2].c1ccc(-c2cccc(-c3ccccn3)n2)nc1` , please? > 81.4 µM
